Data origin: the supplement of paper PMC11061612

# System: SK-MES-1 (Squamous Cell Lung Carcinoma)
# TEST NAME: Bliss excess, mean over the matrix (fraction); higher = more synergy
QUANTITY NAME: Bliss excess
Answer field: number only, no words.

// worked examples, Bliss excess included
INSERT INTO assay_data (molecule, quantity_name, endpoint_value) VALUES
  ('CC(=O)Nc1cccc(-n2c(=O)n(C3CC3)c(=O)c3c(Nc4ccc(I)cc4F)n(C)c(=O)c(C)c32)c1 [Trametinib] + Cc1nc(-c2cn3c(n2)-c2ccc(-c4cnn(C(C)(C)C(N)=O)c4)cc2OCC3)n(C(C)C)n1 [Taselisib] (first compound max 1 µM, 7x7, partner max 10 µM)', 'Bliss excess', 0.198),
  ('Cn1cnc2c(F)c(Nc3ccc(Br)cc3Cl)c(C(=O)NOCCO)cc21 [Selumetinib] + CCN(CCO)CCCOc1ccc2c(Nc3cc(CC(=O)Nc4cccc(F)c4)[nH]n3)ncnc2c1 [AZD2811] (first compound max 10 µM, 7x7, partner max 1 µM)', 'Bliss excess', -0.048);

Problem: Request the reported Bliss excess associated with CC1(C)CCC(CN2CCN(c3ccc(C(=O)NS(=O)(=O)c4ccc(NCC5CCOCC5)c([N+](=O)[O-])c4)c(Oc4cnc5[nH]ccc5c4)c3)CC2)=C(c2ccc(Cl)cc2)C1 [Venetoclax] + C1CN(CCC1(C(=O)N[C@@H](CCO)C2=CC=C(C=C2)Cl)N)C3=NC=NC4=C3C=CN4 [Capivasertib] (first compound max 1 µM, 7x7, partner max 3 µM)
Result: -0.044

* * *

# Test system: NCI-H2066 (Squamous Cell Lung Carcinoma)
# TEST NAME: Bliss excess, mean over the matrix (fraction); higher = more synergy
Bliss excess values, listed per item
I only need the number, thanks.

Answered examples (3):
INSERT INTO measurements (compound, endpoint_value) VALUES
  ('CCc1c2c(nc3ccc(O)cc13)-c1cc3c(c(=O)n1C2)COC(=O)[C@]3(O)CC [SN-38] + O=C(c1cc(Cc2n[nH]c(=O)c3ccccc23)ccc1F)N1CCN(C(=O)C2CC2)CC1 [Olaparib] (first compound max 0.3 µM, 7x7, partner max 10 µM)', -0.0477),
  ('COc1cccc(OCCCN)c1-c1cc(Nc2cnc(C#N)cn2)n[nH]1 [Prexasertib] + C[C@@H]1COCCN1C2=NC(=NC(=C2)C3(CC3)[S@](=N)(=O)C)C4=C5C=CNC5=NC=C4 [AZD6738] (first compound max 1 µM, 7x7, partner max 10 µM)', -0.0154),
  ('CCN(CCO)CCCOc1ccc2c(Nc3cc(CC(=O)Nc4cccc(F)c4)[nH]n3)ncnc2c1 [AZD2811] + O=C(c1cc(Cc2n[nH]c(=O)c3ccccc23)ccc1F)N1CCN(C(=O)C2CC2)CC1 [Olaparib] (first compound max 1 µM, 7x7, partner max 10 µM)', -0.022);

Attention now shifts to the item below.
Problem: Would you mind telling me what Bliss excess value was observed for COc1nnc2ccc(N3CCC(c4ccc(OCCN5CCN(C)C(=O)[C@H]5C)cc4)CC3)nn12 [AZD5153] + C[C@@H]1COCCN1C2=NC(=NC(=C2)C3(CC3)[S@](=N)(=O)C)C4=C5C=CNC5=NC=C4 [AZD6738] (first compound max 1 µM, 7x7, partner max 10 µM) ?
Result: -0.0454

* * *

# System: CAL-29 (Bladder Carcinoma)
# TEST NAME: combination Emax (second highest fraction inhibited in the dose matrix, 72 h); higher = more inhibition; extreme values may be limits of the assay
Using combination Emax as the sorting value, the categories are bin 1 = under 0.5, bin 2 = from 0.5 up to 0.7, bin 3 = 0.7 and over

Worked set:
INSERT INTO assay_data (compound, class_label) VALUES
  ('CC1(C)CCC(CN2CCN(c3ccc(C(=O)NS(=O)(=O)c4ccc(NCC5CCOCC5)c([N+](=O)[O-])c4)c(Oc4cnc5[nH]ccc5c4)c3)CC2)=C(c2ccc(Cl)cc2)C1 [Venetoclax] + C=CCn1c(=O)c2cnc(Nc3ccc(N4CCN(C)CC4)cc3)nc2n1-c1cccc(C(C)(C)O)n1 [AZD1775] (first compound max 1 µM, partner max 1 µM)', 'bin 1'),
  ('CC1(C)CCC(CN2CCN(c3ccc(C(=O)NS(=O)(=O)c4ccc(NCC5CCOCC5)c([N+](=O)[O-])c4)c(Oc4cnc5[nH]ccc5c4)c3)CC2)=C(c2ccc(Cl)cc2)C1 [Venetoclax] + C[C@@H](Nc1cc(F)cc(F)c1)c1cc(C(=O)N(C)C)cc2c(=O)cc(N3CCOCC3)oc12 [AZD8186] (first compound max 1 µM, 7x7, partner max 3 µM)', 'bin 1'),
  ('COc1cccc(OCCCN)c1-c1cc(Nc2cnc(C#N)cn2)n[nH]1 [Prexasertib] + CN(C)CCCOc1ccc(-c2ccc3ncc4c(c3c2)n(C2CCOCC2)c(=O)n4C)cn1 [AZD0156] (first compound max 1 µM, 7x7, partner max 1 µM)', 'bin 3');

API: the following record is the query input.
Problem: Determine which band this compound sits in: CN(CCO)CC[C@H](CSc1ccccc1)Nc1ccc(S(=O)(=O)NC(=O)c2ccc(N3CCC([C@@H](O)c4ccccc4-c4ccc(Cl)cc4)CC3)cc2)cc1S(=O)(=O)C(F)(F)F [AZD4320] + Cn1cnc2c(F)c(Nc3ccc(Br)cc3Cl)c(C(=O)NOCCO)cc21 [Selumetinib] (first compound max 1 µM, 7x7, partner max 3 µM)
Result: bin 2

* * *

Examples of compounds with documented combination Emax follow.
# Test system: GI-ME-N (Neuroblastoma)
# TEST NAME: combination Emax (second highest fraction inhibited in the dose matrix, 72 h); higher = more inhibition; extreme values may be limits of the assay
Keep the answer to the number alone.

For orientation, consider the following solved cases.
INSERT INTO measurements (compound, endpoint_value) VALUES
  ('CC(=O)c1c(C)c2cnc(Nc3ccc(N4CCNCC4)cn3)nc2n(C2CCCC2)c1=O [Palbociclib] + CN(CC[C@H](CSC1=CC=CC=C1)NC2=C(C=C(C=C2)S(=O)(=O)NC(=O)C3=CC=C(C=C3)N4CCC(CC4)[C@H](C5=CC=CC=C5C6=CC=C(C=C6)Cl)O)S(=O)(=O)C(F)(F)F)CCO [AZD4320] (first compound max 10 µM, 7x7, partner max 1 µM)', 0.211),
  ('CN(CCO)CC[C@H](CSc1ccccc1)Nc1ccc(S(=O)(=O)NC(=O)c2ccc(N3CCC([C@@H](O)c4ccccc4-c4ccc(Cl)cc4)CC3)cc2)cc1S(=O)(=O)C(F)(F)F [AZD4320] + Cc1cc2ncnn2cc1Nc1ncc2c(n1)n(C1CCOCC1)c(=O)n2C [AZD7648] (first compound max 1 µM, 7x7, partner max 10 µM)', 0.153);

Then this compound:
Problem: May I ask what combination Emax has been recorded for C[C@@H](c1ccc2nccn2c1)n1nnc2ncc(-c3cnn(C)c3)nc21 [Savolitinib] + CC1(C)CCC(CN2CCN(c3ccc(C(=O)NS(=O)(=O)c4ccc(NCC5CCOCC5)c([N+](=O)[O-])c4)c(Oc4cnc5[nH]ccc5c4)c3)CC2)=C(c2ccc(Cl)cc2)C1 [Venetoclax] (first compound max 1 µM, 7x7, partner max 1 µM) ?
Result: 0.17

* * *

# System: A549 (Lung Adenocarcinoma)
# TEST NAME: Bliss excess, mean over the matrix (fraction); higher = more synergy
QUANTITY NAME: Bliss excess
The reply should be a number, written without any unit.

INSERT INTO measurements (compound, quantity_name, endpoint_value) VALUES
  ('COc1cccc2c1C(=O)c1c(O)c3c(c(O)c1C2=O)C[C@@](O)(C(=O)CO)C[C@@H]3O[C@H]1C[C@H](N)[C@H](O)[C@H](C)O1 [Doxorubicin] + Cc1cc2ncnn2cc1Nc1ncc2c(n1)n(C1CCOCC1)c(=O)n2C [AZD7648] (first compound max 1 µM, 7x7, partner max 10 µM)', 'Bliss excess', 0.0564),
  ('CC1(C)CCC(CN2CCN(c3ccc(C(=O)NS(=O)(=O)c4ccc(NCC5CCOCC5)c([N+](=O)[O-])c4)c(Oc4cnc5[nH]ccc5c4)c3)CC2)=C(c2ccc(Cl)cc2)C1 [Venetoclax] + Cc1cc2ncnn2cc1Nc1ncc2c(n1)n(C1CCOCC1)c(=O)n2C [AZD7648] (first compound max 1 µM, 7x7, partner max 10 µM)', 'Bliss excess', -0.0445);

Problem: Please give the measured Bliss excess for this compound: COc1nnc2ccc(N3CCC(c4ccc(OCCN5CCN(C)C(=O)[C@H]5C)cc4)CC3)nn12 [AZD5153] + C[C@@H]1COCCN1C2=NC(=NC(=C2)C3(CC3)[S@](=N)(=O)C)C4=C5C=CNC5=NC=C4 [AZD6738] (first compound max 1 µM, 7x7, partner max 10 µM)
Result: -0.0292

* * *

# System: NCI-H1581 (Non-Small Cell Lung Carcinoma)
# TEST NAME: combination Emax (second highest fraction inhibited in the dose matrix, 72 h); higher = more inhibition; extreme values may be limits of the assay
QUANTITY NAME: combination Emax
Give the value as a plain number.

INSERT INTO results (compound, target_or_test_system, quantity_name, endpoint_value) VALUES
  ('Cn1cnc2c(F)c(Nc3ccc(Br)cc3Cl)c(C(=O)NOCCO)cc21 [Selumetinib] + C[C@@H]1COCCN1C2=NC(=NC(=C2)C3(CC3)[S@](=N)(=O)C)C4=C5C=CNC5=NC=C4 [AZD6738] (first compound max 10 µM, 7x7, partner max 10 µM)', 'NCI-H1581 (Non-Small Cell Lung Carcinoma)', 'combination Emax', 0.545),
  ('CC1(C)CCC(CN2CCN(c3ccc(C(=O)NS(=O)(=O)c4ccc(NCC5CCOCC5)c([N+](=O)[O-])c4)c(Oc4cnc5[nH]ccc5c4)c3)CC2)=C(c2ccc(Cl)cc2)C1 [Venetoclax] + CCN(CCO)CCCOc1ccc2c(Nc3cc(CC(=O)Nc4cccc(F)c4)[nH]n3)ncnc2c1 [AZD2811] (first compound max 1 µM, 7x7, partner max 1 µM)', 'NCI-H1581 (Non-Small Cell Lung Carcinoma)', 'combination Emax', 0.266),
  ('COc1cccc(OCCCN)c1-c1cc(Nc2cnc(C#N)cn2)n[nH]1 [Prexasertib] + CCc1c2c(nc3ccc(O)cc13)-c1cc3c(c(=O)n1C2)COC(=O)[C@]3(O)CC [SN-38] (first compound max 1 µM, 7x7, partner max 0.3 µM)', 'NCI-H1581 (Non-Small Cell Lung Carcinoma)', 'combination Emax', 0.897);

Problem: Could you share which combination Emax value was measured for Cc1c2c(nn1C)CSCc1cc(n(C)n1)CSc1cc(c3ccccc3c1)OCCCc1c(C(=O)O)n(C)c3c-2c(Cl)ccc13 [AZD5991] + CCN(CCO)CCCOc1ccc2c(Nc3cc(CC(=O)Nc4cccc(F)c4)[nH]n3)ncnc2c1 [AZD2811] (first compound max 1 µM, 7x7, partner max 1 µM) ?
Result: 1
